Data origin, for the record: paper PMC9838217

Property: binding signal; scope: individual sequences
- ASSAY_TARGET: SALL4 ZFC4 WT (HT-SELEX) (Mus musculus, UniProt Q8BX22 870-940)
- Sequence: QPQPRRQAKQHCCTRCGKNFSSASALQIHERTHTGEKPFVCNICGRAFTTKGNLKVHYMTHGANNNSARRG
- ASSAY_TEXT: HT-SELEX; high values mean tight binding
- CONDITIONS: protein: recombinant; vector His6-GST; dsDNA, one strand shown
Your answer should be a plain number; it is taken to be in fold-change vs cycle 0.

Some sequences with known binding signal results, for comparison:
AGCTGG 0.346
CCATTC 0.803

Q: I would be grateful if you could share the reported binding signal for ATGTGG .
Result: 0.714

Q: Similarly, CGATCA ?
Result: 0.683

Q: Similarly, AGACCC ?
Result: 0.415

Q: Similarly, GGATCA ?
Result: 0.841

Q: Similarly, AAGTTA ?
Result: 2.21

Q: Similarly, AATGAA ?
Result: 2.19

Q: Similarly, ATACTA ?
Result: 2.04

Q: Similarly, CATATA ?
Result: 2.3

Q: Similarly, ATACAA ?
Result: 2

Q: Similarly, ACACAA ?
Result: 1.07

Q: Similarly, CTGTTA ?
Result: 1.37

Q: Similarly, AAAGAA ?
Result: 1.95

Q: Similarly, CTCTAC ?
Result: 0.799
